List of inhibition values.
- target-or-test-system: Botulinum neurotoxin type A (Clostridium botulinum)
- test-summary: BoNT/A light chain protease inhibitors, biochemical, multiplex microsphere flow cytometry, validation set (AID 588460)
- condition-info: at 10 µM, hits give high values
measurement-name: inhibition (%)

compound: CC(C)(C)c1csc(N/N=C/c2cccnc2)n1
target-or-test-system: Botulinum neurotoxin type A (Clostridium botulinum)
measurement-name: inhibition
unit-of-measurement: %
reading: 0.5
//
compound: O=C(CCNNC(=O)c1ccncc1)NCc1ccccc1
target-or-test-system: Botulinum neurotoxin type A (Clostridium botulinum)
measurement-name: inhibition
unit-of-measurement: %
reading: 0.9
//
compound: Cc1ccc2[nH]c(=O)c(Cc3ccccc3)c(O)c2c1
target-or-test-system: Botulinum neurotoxin type A (Clostridium botulinum)
measurement-name: inhibition
unit-of-measurement: %
reading: -0.4
//
compound: Cc1nc(-c2coc3c(CN(C)C)c(O)ccc3c2=O)cs1
target-or-test-system: Botulinum neurotoxin type A (Clostridium botulinum)
measurement-name: inhibition
unit-of-measurement: %
reading: -0.6
//
compound: O=C(NCc1ccc(N2CCCC2=O)cc1)c1cccc(Cl)c1
target-or-test-system: Botulinum neurotoxin type A (Clostridium botulinum)
measurement-name: inhibition
unit-of-measurement: %
reading: -2.2
//
compound: CC(=O)N1CC23C=CC(CC2CC12CCCCCC2)O3 (stereo unspecified)
target-or-test-system: Botulinum neurotoxin type A (Clostridium botulinum)
measurement-name: inhibition
unit-of-measurement: %
reading: -1.4
//
compound: CC(C)COC(=O)C1C(=O)CC(C)(O)C(C(=O)OCC(C)C)C1c1cccnc1 (stereo unspecified)
target-or-test-system: Botulinum neurotoxin type A (Clostridium botulinum)
measurement-name: inhibition
unit-of-measurement: %
reading: 0.6
//
compound: O=C(CCCN1C(=O)/C(=C\c2cccs2)SC1=S)Nc1ccccn1
target-or-test-system: Botulinum neurotoxin type A (Clostridium botulinum)
measurement-name: inhibition
unit-of-measurement: %
reading: 5.2
//
compound: CC(C)(C)N1NC2(CCCCC2)NC1=S
target-or-test-system: Botulinum neurotoxin type A (Clostridium botulinum)
measurement-name: inhibition
unit-of-measurement: %
reading: -1.4
//
compound: CC1(C)Oc2ccc(C#N)cc2[C@@H](N2CCCC2=O)[C@@H]1O
target-or-test-system: Botulinum neurotoxin type A (Clostridium botulinum)
measurement-name: inhibition
unit-of-measurement: %
reading: 0.5
//
compound: C[C@H](NC(=O)C1(c2ccccc2)CCN(C(=O)[C@H]2CSCN2C(=O)OC(C)(C)C)CC1)C(=O)O
target-or-test-system: Botulinum neurotoxin type A (Clostridium botulinum)
measurement-name: inhibition
unit-of-measurement: %
reading: -2

* * *

- Tested on: Botulinum neurotoxin type F light chain protease (Clostridium botulinum)
- test-summary: Botulinum neurotoxin type F light chain protease inhibition, multiplex microsphere flow cytometry, validation set (AID 588459)
- condition-info: multiplex microsphere protease substrate cleavage assay, at 10 µM, hits give high values
In this section, each of the compounds is paired with its reported inhibition.
measurement-name: inhibition (%)

compound: O=C(O)CC(O)C(=O)O (centres undefined)
unit-of-measurement: %
reading: -3.1

compound: CC(=O)c1cccc(NC(=O)N[C@@H](CC(C)C)C(=O)O)c1
unit-of-measurement: %
reading: -0.3

compound: O=C(NCCc1c[nH]c2ccccc12)OCCSS(=O)(=O)O
unit-of-measurement: %
reading: -4.5

compound: NC(N)=NC(=O)c1nc(Cl)c(N)nc1N
unit-of-measurement: %
reading: -3.3

compound: CCN1C(=O)C(CC(=O)Nc2ccc(F)cc2)N(Cc2ccco2)C1=S (centres undefined)
unit-of-measurement: %
reading: -2.9

compound: Cc1cccc(NC(=O)c2cc3ccccc3o2)c1
unit-of-measurement: %
reading: 1.3

compound: CCCCC[C@H](O)/C=C/[C@@H]1[C@@H](CCCCCCC(=O)O)[C@@H](O)C[C@H]1O
unit-of-measurement: %
reading: -2.9

compound: CC(=O)N(CCC(Cc1ccccc1)c1ccc2c(c1)OCO2)Cc1ccc(Cl)cc1 (centres undefined)
unit-of-measurement: %
reading: 3.5

compound: CNCCCC1c2ccccc2C=Cc2ccccc21
unit-of-measurement: %
reading: -5.9

compound: Cc1ccc([N+](=O)[O-])cc1NC1OC(CO)C(O)C1O (centres undefined)
unit-of-measurement: %
reading: 1.5

compound: COc1ccc(/C=C\C(=O)c2c(O)ccc3c(C)cc(=O)oc23)cc1OC
unit-of-measurement: %
reading: 1.5

compound: COc1ccc2c(c1)[N+](C)(C)C(C)(C)C=C2C
unit-of-measurement: %
reading: -0.4

compound: CC12CCC(C(=O)N3CCc4ccccc43)(CC1=O)C2(C)C (centres undefined)
unit-of-measurement: %
reading: 0.6

compound: COc1ccccc1Oc1c(C)oc2c(CN3CCN(CCO)CC3)c(O)ccc2c1=O
unit-of-measurement: %
reading: -2.3

compound: O=C1c2cccc3cccc(c23)C(=O)N1c1ccccn1
unit-of-measurement: %
reading: -2.7

compound: Fc1ccc(-c2cc(-c3ccccc3)nc(-n3cccn3)n2)cc1
unit-of-measurement: %
reading: -6.3

compound: CC(=O)N[C@@H](CS)C(=O)O
unit-of-measurement: %
reading: 5.5

compound: C#CCN1C(=O)C(O)(CC(=O)c2ccc(OC)c(OC)c2)c2ccccc21 (centres undefined)
unit-of-measurement: %
reading: 2.3

compound: O=C(NC(=S)Nc1nc(-c2ccccc2)cs1)c1ccco1
unit-of-measurement: %
reading: 4.3

compound: CC1(C)C2CCC1(C)C(OCC[N+](C)(C)CC(=O)OC1CCCCC1)C2 (centres undefined)
unit-of-measurement: %
reading: -1.7

compound: Cc1cc(C)c(NC(=O)NC(=O)C(Cl)(Cl)Cl)c(C)c1
unit-of-measurement: %
reading: 2.9

compound: COc1ccc(C(=O)NCCC2=CCCCC2)cc1[N+](=O)[O-]
unit-of-measurement: %
reading: -5.9

compound: COCc1cc(=O)[nH]c(Nc2nc3ccccc3o2)n1
unit-of-measurement: %
reading: -3.7

compound: CC(C)Oc1ccc2c(=O)c(-c3ccccc3)coc2c1
unit-of-measurement: %
reading: 4.4

* * *

- target-or-test-system: Integrin beta-1 (Homo sapiens) + Integrin alpha-4 (Homo sapiens) (UniProt P13612+P05556)
- Sequence (P05556 whole entry, looked up): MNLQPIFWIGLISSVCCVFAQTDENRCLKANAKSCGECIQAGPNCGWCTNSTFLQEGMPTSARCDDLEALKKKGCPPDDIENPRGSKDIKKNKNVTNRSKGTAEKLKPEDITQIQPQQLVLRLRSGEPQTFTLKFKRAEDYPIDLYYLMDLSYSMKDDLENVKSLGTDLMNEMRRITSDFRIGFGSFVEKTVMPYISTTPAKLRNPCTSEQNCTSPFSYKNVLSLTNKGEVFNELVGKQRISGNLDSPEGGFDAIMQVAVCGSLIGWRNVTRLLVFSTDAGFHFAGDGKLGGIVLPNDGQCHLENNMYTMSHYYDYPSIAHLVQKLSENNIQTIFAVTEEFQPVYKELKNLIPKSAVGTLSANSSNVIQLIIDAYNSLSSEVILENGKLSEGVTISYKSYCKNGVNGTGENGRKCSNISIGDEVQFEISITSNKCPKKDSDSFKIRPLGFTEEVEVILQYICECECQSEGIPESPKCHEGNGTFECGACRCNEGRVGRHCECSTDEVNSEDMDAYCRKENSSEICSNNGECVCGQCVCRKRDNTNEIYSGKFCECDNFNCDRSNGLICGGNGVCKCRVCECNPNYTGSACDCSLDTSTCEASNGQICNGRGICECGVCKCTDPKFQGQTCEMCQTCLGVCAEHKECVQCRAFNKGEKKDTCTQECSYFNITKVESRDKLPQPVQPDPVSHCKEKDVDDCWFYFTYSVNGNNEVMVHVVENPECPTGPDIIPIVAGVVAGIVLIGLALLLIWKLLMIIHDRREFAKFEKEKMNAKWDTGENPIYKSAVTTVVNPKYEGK
- Sequence (P13612 whole entry, looked up): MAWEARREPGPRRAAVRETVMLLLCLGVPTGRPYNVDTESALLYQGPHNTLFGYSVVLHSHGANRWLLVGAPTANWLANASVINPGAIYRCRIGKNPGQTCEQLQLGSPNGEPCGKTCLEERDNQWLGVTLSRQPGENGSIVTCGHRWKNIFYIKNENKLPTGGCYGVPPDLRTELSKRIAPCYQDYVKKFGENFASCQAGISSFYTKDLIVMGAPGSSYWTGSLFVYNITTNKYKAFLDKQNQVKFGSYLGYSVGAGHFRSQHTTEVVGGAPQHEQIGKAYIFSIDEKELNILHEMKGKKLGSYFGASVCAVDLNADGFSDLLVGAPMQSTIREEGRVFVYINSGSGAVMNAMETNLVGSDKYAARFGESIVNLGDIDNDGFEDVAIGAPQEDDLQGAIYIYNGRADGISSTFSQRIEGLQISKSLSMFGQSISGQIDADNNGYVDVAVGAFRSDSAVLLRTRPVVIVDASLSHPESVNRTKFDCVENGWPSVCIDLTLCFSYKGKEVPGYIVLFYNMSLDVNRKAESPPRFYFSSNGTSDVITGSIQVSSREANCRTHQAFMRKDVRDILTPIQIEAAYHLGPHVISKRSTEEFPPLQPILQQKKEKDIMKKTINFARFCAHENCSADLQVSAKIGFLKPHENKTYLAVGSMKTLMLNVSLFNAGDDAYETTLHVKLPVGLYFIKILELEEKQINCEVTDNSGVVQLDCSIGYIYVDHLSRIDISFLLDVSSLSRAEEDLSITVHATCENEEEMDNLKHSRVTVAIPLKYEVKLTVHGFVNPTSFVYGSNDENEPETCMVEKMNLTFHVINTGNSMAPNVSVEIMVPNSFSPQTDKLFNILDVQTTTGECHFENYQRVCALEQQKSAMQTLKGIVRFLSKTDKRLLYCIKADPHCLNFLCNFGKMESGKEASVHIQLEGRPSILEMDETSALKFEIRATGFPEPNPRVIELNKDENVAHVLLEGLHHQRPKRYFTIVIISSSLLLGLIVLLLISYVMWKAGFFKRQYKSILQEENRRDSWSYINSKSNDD
- test-summary: inhibition of HUTS-21 binding to VLA-4, pilot screen, VLA-4 allosteric modulator project, U937 cells, HUTS-21 mAb, flow cytometry, validation set (AID 2674);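 note: antibody binding induced by the VLA-4 ligand LDV present at three times its Kd; 0% = LDV ligand with antibody and no compound and 100% = antibody without LDV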
- condition-info: HUTS-21 LIBS mAb binding, at 6.7 µM, hits give high values

compound: O=c1c2ccccc2nc(/C=C/c2ccc3c(c2)OCO3)n1-c1ccccc1
inhibition, %: 1.44

compound: C[C@@]1(CO)[C@H](O)CC[C@@]2(C)[C@H]1CC[C@H]1C[C@@H]3C[C@@]12CC[C@]3(O)CO
inhibition, %: 17.7

compound: C#C[C@]1(O)CC[C@H]2[C@@H]3CCC4=CC(=O)CC[C@]4(C)[C@H]3CC[C@@]21C
inhibition, %: 3.55

compound: COc1cccc(Oc2c(C)oc3cc(OC(=O)N(C)C)ccc3c2=O)c1
inhibition, %: 5.61

compound: C[C@H]1CCCC(=O)CCC/C=C/c2cc(O)cc(O)c2C(=O)O1
inhibition, %: -0.31

compound: Cc1ccc(/C=C2/C(=O)NC(=O)N(C)C2=O)cc1
inhibition, %: 20.3

compound: C[C@H]1CCCC(=O)CCCCCc2cc(O)cc(O)c2C(=O)O1
inhibition, %: 0.59

compound: CC(C)CC12CN3CCN(CC(C3)C1O)C2 (stereo not given)
inhibition, %: -2.27

compound: COc1ccc(C(=O)N2CCCC2=O)cc1
inhibition, %: -6.23

compound: CC(=O)[C@H]1CC[C@H]2[C@@H]3CC[C@H]4C[C@H](O)CC[C@]4(C)[C@H]3C(=O)C[C@]12C
inhibition, %: 6.29
